Please respond with reported MLD50: the minimum lethal dose that killed 50% of the cells, macrophages for every item in the list.
System: murine macrophages
Test: Cytotoxicity test, MTT method, murine peritoneal macrophages
Conditions: murine peritoneal macrophages, MTT, 24 h
Unit µg/mL implied. Number only.

Please fill in: MLD50: the minimum lethal dose that killed 50% of the cells, macrophages reported for [Cl][Bi]([Cl])([c]1ccccc1)([c]1ccccc1)[c]1ccccc1 [(4), Triphenylbismuth dichloride] = 25.15

Please fill in: MLD50: the minimum lethal dose that killed 50% of the cells, macrophages reported for [Cl][Sb]([Cl])([c]1ccccc1)([c]1ccccc1)[c]1ccccc1 [(5), triphenylantimony dichloride] = 30.75

Please fill in: MLD50: the minimum lethal dose that killed 50% of the cells, macrophages reported for CC(C)=CCC1=C(O)C(=O)c2ccccc2C1=O = 184.65

Please fill in: MLD50: the minimum lethal dose that killed 50% of the cells, macrophages reported for C[C@@H]1[C@H](O)[C@@H](C)/C=C/C=C/C=C/C=C/C=C/C=C/C=C/[C@H](O[C@@H]2O[C@H](C)[C@@H](O)[C@H](N)[C@@H]2O)C[C@@H]2O[C@](O)(C[C@@H](O)C[C@@H](O)[C@H](O)CC[C@@H](O)C[C@@H](O)CC(=O)O[C@H]1C)C[C@H](O)[C@H]2C(=O)O = 179.95

Please fill in: MLD50: the minimum lethal dose that killed 50% of the cells, macrophages reported for [Cl][Sn]([c]1ccccc1)([c]1ccccc1)[c]1ccccc1 [(6), triphenyltin chloride] = 0.73

* * *

Please respond with reported MLD50: the minimum lethal dose that killed 50% of the cells, HepG2 for every item in the list.
System: HepG2 cells
Assay: Cytotoxicity test, MTT method, HepG2 cells
Details: HepG2 cells, MTT, 24 h
Don't forget the unit after the value.

Please fill in: MLD50: the minimum lethal dose that killed 50% of the cells, HepG2 reported for [Cl][Bi]([Cl])([c]1ccccc1)([c]1ccccc1)[c]1ccccc1 [(4), Triphenylbismuth dichloride] = 183.75 ± 4.77 µg/mL

Please fill in: MLD50: the minimum lethal dose that killed 50% of the cells, HepG2 reported for [Cl][Sb]([Cl])([c]1ccccc1)([c]1ccccc1)[c]1ccccc1 [(5), triphenylantimony dichloride] = 157.46 ± 37.13 µg/mL

Please fill in: MLD50: the minimum lethal dose that killed 50% of the cells, HepG2 reported for [Cl][Sn]([c]1ccccc1)([c]1ccccc1)[c]1ccccc1 [(6), triphenyltin chloride] = 12.04 ± 8.42 µg/mL

Please fill in: MLD50: the minimum lethal dose that killed 50% of the cells, HepG2 reported for C[C@@H]1[C@H](O)[C@@H](C)/C=C/C=C/C=C/C=C/C=C/C=C/C=C/[C@H](O[C@@H]2O[C@H](C)[C@@H](O)[C@H](N)[C@@H]2O)C[C@@H]2O[C@](O)(C[C@@H](O)C[C@@H](O)[C@H](O)CC[C@@H](O)C[C@@H](O)CC(=O)O[C@H]1C)C[C@H](O)[C@H]2C(=O)O = 644.59 ± 126.57 µg/mL

Please fill in: MLD50: the minimum lethal dose that killed 50% of the cells, HepG2 reported for CC(C)=CCC1=C(O)C(=O)c2ccccc2C1=O = 201.77 ± 5.32 µg/mL
